Catalogue of compounds with associated IC50
Tested on: Leishmania donovani
Test: Antileishmanial activity against Leishmania donovani promastigotes
Assay type: functional, organism-based
recorded-endpoint: IC50

>  <compound>
CC1(C)CCC(=O)[C@]2(C)O[C@@]3(C)CC[C@@]12OO3 (racemic)

>  <recorded-value>
> 100 µM

$$$$
>  <compound>
CC1(C)CCC[C@]2(C)O[C@@]3(C)C=C[C@@]12OO3 (racemic)

>  <recorded-value>
> 100 µM

$$$$
>  <compound>
CC(=O)O[C@H]1CCC(C)(C)[C@@]23C=C[C@@](C)(OO2)O[C@@]13C (racemic)

>  <recorded-value>
> 100 µM

$$$$
>  <compound>
CC1(C)CC[C@H](O)[C@]2(C)O[C@@]3(C)C=C[C@@]12OO3 (racemic)

>  <recorded-value>
> 100 µM

$$$$
>  <compound>
CC1(C)CC[C@H](O)[C@]2(C)O[C@@]3(C)CC[C@@]12OO3 (racemic)

>  <recorded-value>
> 100 µM

$$$$
>  <compound>
C[C@H]1[C@H](OC(=O)CCC(=O)O)O[C@@H]2O[C@@]3(C)CC[C@H]4[C@H](C)CC[C@@H]1[C@@]24OO3 [ARTESUNATE]

>  <recorded-value>
12.1 µM

$$$$

Reference source for all entries: ChEMBL document CHEMBL4725366
